- measurement.protocol: Cytotoxic effects against RAW264.7 macrophage (cell viability)
- Assay type: cell-based
- assay.context: mouse; 10 µM; read-out: Viability cell (%) RAW 264.7 10 µM
measurement.label: viability at 10 µM

Look up and report measured viability at 10 µM for this entry: CC(=O)O[C@H]1[C@@H](OC(C)=O)[C@@]2(C)C3=CC[C@@H](C4=CCOC4=O)[C@]3(C)CC[C@@H]2[C@@]2(C)C=CC(=O)C(C)(C)[C@H]12
> 99.9%

* * *

Could you please report measured viability at 18 h, 10 µM for the items listed next?
- measurement.protocol: Cell viability by CCK-8, THP-1 cells
- Format: cell-based
- assay.context: human, PMA-differentiated THP-1 cells, 10 µM, 18 h, without LPS; read-out: Viability Cell (%) THP-1 Without LPS

{"columns": ["compound", "viability at 18 h, 10 µM"],
 "data": [
  ["CC(=O)O[C@@H]1C[C@H]2C(C)(C)C(=O)C=C[C@]2(C)[C@H]2CC[C@]3(C)C(C(=O)C[C@H]3c3ccoc3)[C@@]21C (stereo partly shown)", "> 99.9%"],
  ["CC(=O)O[C@H]1[C@@H](OC(C)=O)[C@@]2(C)C3=CC[C@@H](C4=CCOC4=O)[C@]3(C)CC[C@@H]2[C@@]2(C)C=CC(=O)C(C)(C)[C@H]12", "90.7%"],
  ["CC(=O)O[C@H]1[C@@H](O)[C@@]2(C)C3=CC[C@@H](c4ccoc4)[C@]3(C)CC[C@@H]2[C@@]2(C)C=CC(=O)C(C)(C)[C@H]12", "> 99.9%"],
  ["CC1(C)C(=O)C=C[C@]2(C)[C@H]3CC[C@]4(C)C(C(=O)C[C@H]4c4ccoc4)[C@]3(C)[C@H](O)C[C@@H]12 (stereo partly drawn) [Compound 1, 7α-hydroxyneotrichilenone]", "> 99.9%"],
  ["CC(=O)O[C@@H]1C[C@]2(C)C(=CC[C@H]2c2ccoc2)[C@@]2(C)[C@H]1[C@@]1(C)C=CC(=O)C(C)(C)[C@@H]1C[C@H]2OC(C)=O", "> 99.9%"]
]}

Would you mind giving viability at 18 h, 10 µM for every compound in the list below?
1. CC(=O)O[C@H]1[C@@H](OC(C)=O)[C@]2(C)[C@H](CC[C@@]3(C)[C@H](c4ccoc4)C(=O)[C@H]4O[C@@]423)[C@@]2(C)C=CC(=O)C(C)(C)[C@H]12
2. C[C@]12C3=CC[C@@H](C4=CC(O)OC4=O)[C@]3(C)CC[C@@H]1[C@@]1(C)C(=O)C=C[C@@]3(C)CO[C@@H]([C@H]2O)[C@H]13 (stereo partly shown)
3. CC1(C)C(=O)C=CC2(C)C1=C(O)C(=O)C1(C)C2(O)C(O)CC2(C)C(c3ccoc3)CC3OC321 (stereo not shown)

["> 99.9%", "> 99.9%", "87.3%"]

Would you mind giving viability at 18 h, 10 µM for every compound in the list below?
1. CC(=O)O[C@H]1[C@@H](OC(C)=O)[C@]2(C)[C@H](CC[C@@]3(C)[C@H](c4ccoc4)C[C@H]4O[C@@]423)[C@@]2(C)C=CC(=O)C(C)(C)[C@H]12
2. CC1(C)C(=O)C=C[C@]2(C)[C@H]3CC[C@]4(C)C(=CC[C@H]4C4CCOC4=O)[C@]3(C)[C@H](O)C[C@@H]12 (stereo partly shown)

> 99.9%
90.4%
